- Test system: tRNA 2'-phosphotransferase TPT1 (Candida albicans SC5314)
- measurement_description: tRNA 2'-phosphotransferase blockers, C. albicans – biochemical, fluorescence polarization, primary screen (AID 1962)
- details: recombinant caTPT1, FP RNA substrate dephosphorylation; at 5 µM
The whole screen tested about 300,000 compounds, of which about 2,500 (0.83%) were called active.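 Rule for the calls: active = inhibition above the mean of all tested compounds plus 3 SD, set per screening campaign (cut at about 24% in these data); inactive = the rest.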 This is one part of a sample in which actives are shown more often than they occur.
Would you mind answering with one of these outcomes? Y for active, N for inactive

Hello, I am checking results. What call was entered for CCOC(=O)/C(C#N)=C/c1ccc(N2CCN(Cc3ccccc3)CC2)cc1 ?
Y

Dear colleague, could you share the recorded outcome for CC(CCN1CCN=C1N(C)C)c1ccccc1 (stereo unspecified) when you have a moment?
N

Could you kindly confirm the outcome this assay logged for CN(C)Cc1c(C(=O)N/N=C/c2ccccc2OCc2ccc(F)cc2)nnn1-c1nonc1N ?
N

// param item: COc1ccc(N2CCN(C(=O)/C(C#N)=C/c3ccccc3)CC2)cc1 ; yields the recorded call
N

State the result this test recorded for CCOC(=O)NC(=O)/C(C#N)=C\c1ccccc1 .
N

What is the recorded call for this compound in the test? CCSC(C)CC1C/C(=N/O)c2c(C)noc2C1 (stereo unspecified)
N

Hey, what did the test say about O=[N+]([O-])c1ccc(N2CCN(c3ccc(O)cc3)CC2)c(Cl)c1 ?
N

What was the test verdict on OCC[C@H]1C[C@@H](O)[C@H](O)[C@@]2(OCCc3ccccc32)O1 ?
N

Hi team, can someone confirm the assay call for CCOC(=O)/C(C#N)=C/c1ccc(OCC(=O)Nc2ccccc2)c(OC)c1 ?
N

Each compound tested received a call. Report the one for COC(=O)C1=C(N)Oc2c(oc(CO)cc2=O)C1c1c(F)cccc1Cl (stereo unspecified) .
N

What was the test verdict on COC(=O)c1ccc(/C=N/N2C(C)CCCC2C)cc1 (stereo unspecified) ?
N
